assay: Half life in rat; type: ADME, organism-based; conditions: in vivo
parameter: half-life (h)

[[record]]
molecule_smiles = "Cc1cn(C[C@H]2CN(c3ccc(-c4cc(C)no4)c(F)c3)C(=O)O2)nn1"
meas_value = 1.2

[[record]]
molecule_smiles = "Cc1cc(-c2ccc(N3C[C@H](Cn4ccnn4)OC3=O)cc2F)on1"
meas_value = 1.7


----------
assay: Volume of distribution in rat; format: ADME, organism-based; conditions: in vivo, read-out: Vss
parameter: Vd (L/kg)

[[record]]
molecule_smiles = "Cc1cc(-c2ccc(N3C[C@H](Cn4ccnn4)OC3=O)cc2F)on1"
parameter = "Vd"
meas_value = 0.6

[[record]]
molecule_smiles = "Cc1cn(C[C@H]2CN(c3ccc(-c4cc(C)no4)c(F)c3)C(=O)O2)nn1"
parameter = "Vd"
meas_value = 0.5

